So I've got a bunch of compounds here, and I need their IC50 values.
Molecular target: BRM (Homo sapiens, UniProt P51531)
Construct: made in house; host or cells: High Five insect cells
Sequence (P51531 whole entry): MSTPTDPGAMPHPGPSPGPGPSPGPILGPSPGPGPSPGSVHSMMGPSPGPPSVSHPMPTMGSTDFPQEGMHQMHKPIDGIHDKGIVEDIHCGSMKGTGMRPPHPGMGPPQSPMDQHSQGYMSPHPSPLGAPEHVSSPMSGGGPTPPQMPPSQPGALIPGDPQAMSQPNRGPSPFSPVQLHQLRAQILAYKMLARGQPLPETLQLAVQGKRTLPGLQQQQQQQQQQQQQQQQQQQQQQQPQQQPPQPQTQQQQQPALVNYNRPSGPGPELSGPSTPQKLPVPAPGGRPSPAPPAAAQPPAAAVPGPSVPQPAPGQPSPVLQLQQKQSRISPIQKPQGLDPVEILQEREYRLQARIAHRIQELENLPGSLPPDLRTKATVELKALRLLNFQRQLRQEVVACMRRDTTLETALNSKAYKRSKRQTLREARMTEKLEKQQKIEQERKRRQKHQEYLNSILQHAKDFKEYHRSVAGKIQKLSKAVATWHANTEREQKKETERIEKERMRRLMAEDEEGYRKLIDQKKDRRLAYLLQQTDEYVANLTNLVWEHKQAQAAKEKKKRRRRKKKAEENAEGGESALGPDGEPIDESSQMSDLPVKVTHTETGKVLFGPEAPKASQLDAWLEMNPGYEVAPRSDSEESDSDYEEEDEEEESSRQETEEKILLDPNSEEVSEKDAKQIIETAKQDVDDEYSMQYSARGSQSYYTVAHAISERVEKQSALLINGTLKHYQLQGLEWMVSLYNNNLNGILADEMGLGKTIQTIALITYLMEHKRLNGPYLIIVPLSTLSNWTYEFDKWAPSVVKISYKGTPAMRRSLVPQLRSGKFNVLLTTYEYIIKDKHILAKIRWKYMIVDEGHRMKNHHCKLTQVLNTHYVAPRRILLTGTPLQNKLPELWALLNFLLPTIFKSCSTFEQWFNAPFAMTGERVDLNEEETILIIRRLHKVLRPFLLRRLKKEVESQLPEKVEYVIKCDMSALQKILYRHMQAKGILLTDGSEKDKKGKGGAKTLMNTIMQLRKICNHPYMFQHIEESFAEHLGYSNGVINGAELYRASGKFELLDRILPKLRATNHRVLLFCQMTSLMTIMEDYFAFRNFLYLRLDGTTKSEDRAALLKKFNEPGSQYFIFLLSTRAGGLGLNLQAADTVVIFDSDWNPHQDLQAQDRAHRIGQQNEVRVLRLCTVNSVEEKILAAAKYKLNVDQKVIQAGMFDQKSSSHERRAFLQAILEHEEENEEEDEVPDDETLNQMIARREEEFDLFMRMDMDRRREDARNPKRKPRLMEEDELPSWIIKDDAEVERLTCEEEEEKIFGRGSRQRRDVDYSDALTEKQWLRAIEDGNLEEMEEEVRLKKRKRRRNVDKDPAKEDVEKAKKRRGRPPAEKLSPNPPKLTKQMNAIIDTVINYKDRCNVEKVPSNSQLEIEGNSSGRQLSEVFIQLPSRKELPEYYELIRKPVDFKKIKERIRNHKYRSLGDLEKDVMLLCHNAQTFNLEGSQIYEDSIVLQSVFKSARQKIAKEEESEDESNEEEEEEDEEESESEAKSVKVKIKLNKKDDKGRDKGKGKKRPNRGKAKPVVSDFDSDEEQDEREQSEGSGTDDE
Experiment: ATPase catalytic activity of BRM, ADP-Glo in vitro biochemical assay
Conditions: ATPase catalytic activity, 30 nM BRM, 400 μM ATP, read-out: BRM IP50 (μM)*

Lookup: Which value of IC50 has been reported for CS(=O)(=O)n1ccc(C(=O)NCC(=O)Nc2nc(-c3cccc(-c4ccncc4)c3)cs2)n1 in the records?
Found: < 0.01 µM

Lookup: Can you handle C[C@H](NC(=O)c1ccn(S(C)(=O)=O)c1)C(=O)Nc1nc(-c2cccc(N3CC(O)C3)c2)cs1 next?
Found: > 0.01 µM

Lookup: Can you handle COC[C@H](NC(=O)c1ccn(S(C)(=O)=O)c1)C(=O)Nc1nc(-c2cccc(-c3cc(C)nc(C)n3)c2)cs1 next?
Found: < 0.01 µM

Lookup: Can you handle CN1CCc2ccc(-c3csc(NC(=O)CNC(=O)c4ccn(C(C)(C)C)c4)n3)cc21 next?
Found: > 0.01 µM

Lookup: Can you handle C[C@@H]1CN(c2cc(-c3csc(NC(=O)CNC(=O)c4ccn(S(C)(=O)=O)c4)n3)ccc2F)C[C@H](C)O1 next?
Found: < 0.01 µM

Lookup: Can you handle C[C@@H]1CCCN(c2cccc(-c3csc(NC(=O)CNC(=O)c4ccn(S(C)(=O)=O)c4)n3)c2)C1 next?
Found: > 0.01 µM

Lookup: Can you handle CS(=O)(=O)n1ccc(C(=O)NCC(=O)Nc2nc(-c3cccc(N4CC(n5cccn5)C4)c3)cs2)c1 next?
Found: > 0.01 µM

Lookup: Can you handle CC(C)(C(=O)O)n1ccc(-c2cccc(-c3csc(NC(=O)CNC(=O)c4ccn(S(C)(=O)=O)c4)n3)c2)n1 next?
Found: > 0.01 µM

Lookup: Can you handle CO[C@@H]1CCCN(c2cccc(-c3csc(NC(=O)CNC(=O)c4ccn(C5(C)COC5)c4)n3)n2)C1 next?
Found: > 0.1 µM

Lookup: Can you handle COC1CCN(c2cccc(-c3csc(NC(=O)CNC(=O)c4ccn(S(C)(=O)=O)c4)n3)c2)CC1 next?
Found: > 0.01 µM

Lookup: Can you handle C[C@@H]1CN(c2nc(-c3csc(NC(=O)CNC(=O)c4ccn(C5(C)COC5)c4)n3)ccc2F)C[C@H](C)O1 next?
Found: < 0.01 µM

Lookup: Can you handle CC(C)(C)n1ccc(C(=O)NCC(=O)Nc2nc(-c3ccnc(N4CCC(O)CC4)n3)cs2)c1 next?
Found: > 0.01 µM

Lookup: Can you handle CS(=O)(=O)n1ccc(C(=O)NCC(=O)Nc2nc(-c3cccc(N4C[C@H]5C[C@H]5C4)c3)cs2)c1 next?
Found: > 0.01 µM

Lookup: Can you handle CS(=O)(=O)n1ccc(C(=O)NCC(=O)Nc2nc(-c3cccc(N4CC[C@@H](N)[C@H](F)C4)c3)cs2)c1 next?
Found: < 0.01 µM

Lookup: Can you handle COC[C@H](NC(=O)c1ccn(S(C)(=O)=O)c1)C(=O)Nc1nc(-c2cccc(N3CCC3)c2)cs1 next?
Found: < 0.01 µM

Lookup: Can you handle CS(=O)(=O)n1ccc(C(=O)NCC(=O)Nc2nc(-c3cccc(-c4ccnc(C(F)(F)F)c4)c3)cs2)c1 next?
Found: < 0.01 µM

Lookup: Can you handle Cc1cc(-c2cccc(-c3csc(NC(=O)CNC(=O)c4ccn(C(C)(C)C)c4)n3)c2)on1 next?
Found: > 0.01 µM

Lookup: Can you handle CCS(=O)(=O)n1ccc(C(=O)NCC(=O)Nc2nc(-c3cccc(N4C[C@@H](C)O[C@@H](C)C4)c3)cs2)c1 next?
Found: < 0.01 µM

* * *

Target: BRM (Homo sapiens, UniProt P51531)
Construct: made in house; host or cells: High Five insect cells
Test: ATPase catalytic activity of BRM, ADP-Glo in vitro biochemical assay
Conditions: ATPase catalytic activity, 30 nM BRM, 400 μM ATP, read-out: BRM IP50
pIC50: −log10 of the molar value.
Recorded metric: pIC50

Lookup: Which value of pIC50 has been reported for CS(=O)(=O)n1ccc(C(=O)NCC(=O)Nc2nc(-c3cc(F)c4c(c3)C(F)(F)CC4)cs2)c1 in the records?
Found: > 8.00

Lookup: Can you handle CC(C)(C)n1ccc(C(=O)NCC(=O)Nc2nc(-c3cccc(N4CCN5CCOCC5C4)n3)cs2)c1 (stereo not shown) next?
Found: < 7.00

Lookup: Can you handle CC1COc2ccc(-c3csc(NC(=O)CNC(=O)c4ccn(S(C)(=O)=O)c4)n3)cc2N1C (stereo not shown) next?
Found: < 8.00

Lookup: Can you handle C[C@@H]1CN(c2cccc(-c3cccc(NC(=O)CNC(=O)c4ccn(S(C)(=O)=O)c4)c3F)c2)C[C@H](C)O1 next?
Found: < 7.00

Lookup: Can you handle COC[C@H](NC(=O)c1ccn(C(C)(C)C#N)c1)C(=O)Nc1nc(-c2ccc3ccn(C)c(=O)c3c2)cs1 next?
Found: > 8.00

Lookup: Can you handle C[C@@H]1CN(c2cccc(-c3csc(NC(=O)CNC(=O)c4ccn([C@@]5(C)CC5(F)F)c4)n3)n2)C[C@H](C)O1 next?
Found: < 7.00

Lookup: Can you handle Cn1cc(N2CCN(c3cccc(-c4csc(NC(=O)CNC(=O)c5ccn(C(C)(C)C)c5)n4)n3)CC2)cn1 next?
Found: < 7.00

Lookup: Can you handle CC(C)(C)n1ccc(C(=O)NCC(=O)Nc2nc(-c3cccc(N4CC[C@@H]5COC[C@H]5C4)n3)cs2)c1 next?
Found: > 8.00

Lookup: Can you handle CS(=O)(=O)n1ccc(C(=O)NCC(=O)Nc2nc(-c3ccc4c(c3)N(C3CCOC3)CC4)cs2)c1 (stereo not shown) next?
Found: < 8.00

Lookup: Can you handle CS(=O)(=O)n1ccc(C(=O)NCC(=O)Nc2nc(-c3ccc4c(c3)N(CC(F)F)CC4)cs2)c1 next?
Found: < 8.00

Lookup: Can you handle COC[C@H](NC(=O)c1ccn(S(C)(=O)=O)c1)C(=O)Nc1nc(-c2cc(F)cc(C#N)c2)cs1 next?
Found: < 8.00

Lookup: Can you handle CC(C)(C)n1ccc(C(=O)NCC(=O)Nc2nc(-c3cccc(N4CCC5(CCOC5)CC4)n3)cs2)c1 next?
Found: < 7.00

Lookup: Can you handle COC[C@H](NC(=O)c1ccn(C2(C)COC2)c1)C(=O)Nc1nc(-c2cc(F)c3ccn(C)c(=O)c3c2)cs1 next?
Found: > 8.00

Lookup: Can you handle N#CC1(n2ccc(C(=O)NCC(=O)Nc3nc(-c4cccc(OC5CC5)n4)cs3)c2)CC1 next?
Found: < 7.00

Lookup: Can you handle N#CC1(n2ccc(C(=O)NCC(=O)Nc3nc(-c4cc(F)cc(OC5CC5)c4)cs3)c2)CC1 next?
Found: < 8.00

Lookup: Can you handle COC[C@H](NC(=O)c1ccn(C(C)(C)C)c1)C(=O)Nc1nc(-c2cc(C)c3ccn(C)c(=O)c3c2)cs1 next?
Found: > 8.00

Lookup: Can you handle COC[C@H](NC(=O)c1ccn(C2(C)COC2)c1)C(=O)Nc1nc(-c2cccc(-c3ccn(C)n3)c2)cs1 next?
Found: < 8.00

Lookup: Can you handle CS(=O)(=O)n1ccc(C(=O)NCC(=O)Nc2nc(-c3cccc([C@@H]4CC4(F)F)c3)cs2)c1 next?
Found: < 8.00

Lookup: Can you handle COC(=O)N1CCC[C@@H](c2csc(NC(=O)CNC(=O)c3ccn(C(C)(C)C)c3)n2)C1 next?
Found: < 7.00

* * *

So I've got a bunch of compounds here, and I need their IC50 values.
Molecular target: BRG-1 (Homo sapiens, UniProt P51532)
Construct: made in house; host or cells: High Five insect cells
Sequence (P51532 whole entry): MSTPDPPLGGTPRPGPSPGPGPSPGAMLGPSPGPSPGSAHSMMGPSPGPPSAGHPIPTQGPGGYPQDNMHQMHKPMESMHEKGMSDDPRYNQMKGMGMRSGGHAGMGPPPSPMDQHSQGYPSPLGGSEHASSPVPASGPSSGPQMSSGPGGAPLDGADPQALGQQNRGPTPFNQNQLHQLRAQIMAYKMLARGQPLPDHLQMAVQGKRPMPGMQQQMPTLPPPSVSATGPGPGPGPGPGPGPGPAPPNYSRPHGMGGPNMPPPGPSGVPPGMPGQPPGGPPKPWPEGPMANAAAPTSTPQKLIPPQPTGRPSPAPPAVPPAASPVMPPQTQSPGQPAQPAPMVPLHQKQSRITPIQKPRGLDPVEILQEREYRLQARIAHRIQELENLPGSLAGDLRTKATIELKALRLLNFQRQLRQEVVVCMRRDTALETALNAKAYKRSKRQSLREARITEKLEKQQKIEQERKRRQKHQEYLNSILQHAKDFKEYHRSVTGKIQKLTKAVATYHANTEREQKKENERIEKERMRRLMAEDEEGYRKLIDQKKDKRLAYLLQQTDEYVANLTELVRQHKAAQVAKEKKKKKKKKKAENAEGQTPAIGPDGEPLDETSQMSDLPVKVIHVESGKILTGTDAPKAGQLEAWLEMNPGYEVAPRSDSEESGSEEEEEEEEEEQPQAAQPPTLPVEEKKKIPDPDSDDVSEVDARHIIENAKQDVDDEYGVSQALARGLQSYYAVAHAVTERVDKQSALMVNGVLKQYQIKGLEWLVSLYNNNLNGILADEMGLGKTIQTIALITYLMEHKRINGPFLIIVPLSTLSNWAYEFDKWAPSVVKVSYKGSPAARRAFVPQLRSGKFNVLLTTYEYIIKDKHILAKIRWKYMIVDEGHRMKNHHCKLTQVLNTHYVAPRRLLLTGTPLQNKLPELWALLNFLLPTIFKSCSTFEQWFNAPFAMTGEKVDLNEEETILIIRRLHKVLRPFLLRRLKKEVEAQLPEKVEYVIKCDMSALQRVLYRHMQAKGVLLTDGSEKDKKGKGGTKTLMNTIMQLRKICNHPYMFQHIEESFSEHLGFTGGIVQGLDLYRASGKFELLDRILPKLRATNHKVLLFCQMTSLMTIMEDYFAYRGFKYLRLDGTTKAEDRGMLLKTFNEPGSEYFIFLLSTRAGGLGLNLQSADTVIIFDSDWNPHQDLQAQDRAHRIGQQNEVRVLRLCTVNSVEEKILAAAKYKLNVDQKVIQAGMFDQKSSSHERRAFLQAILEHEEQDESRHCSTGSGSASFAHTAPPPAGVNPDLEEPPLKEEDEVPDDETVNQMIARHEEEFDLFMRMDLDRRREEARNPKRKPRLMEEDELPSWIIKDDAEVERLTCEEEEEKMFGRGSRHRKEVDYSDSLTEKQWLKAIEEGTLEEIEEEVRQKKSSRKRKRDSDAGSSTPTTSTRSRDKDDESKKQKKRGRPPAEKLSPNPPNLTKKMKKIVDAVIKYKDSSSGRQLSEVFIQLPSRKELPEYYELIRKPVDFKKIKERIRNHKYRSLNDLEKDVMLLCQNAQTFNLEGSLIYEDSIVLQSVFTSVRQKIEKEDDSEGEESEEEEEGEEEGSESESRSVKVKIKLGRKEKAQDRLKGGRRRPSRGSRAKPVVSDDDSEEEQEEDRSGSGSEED
Assay: ATPase catalytic activity of BRG-1, ADP-Glo in vitro biochemical assay
Conditions: ATPase catalytic activity, 30 nM BRG-1, 400 μM ATP, read-out: BRG1 IP50 (μM)*

Lookup: Which value of IC50 has been reported for CS(=O)(=O)n1ccc(C(=O)NCC(=O)Nc2nc(-c3cccc(OC[C@@H]4CCOC4)c3)cs2)c1 in the records?
Found: > 0.01 µM

Lookup: Can you handle CC(C)(C)n1ccc(C(=O)NCC(=O)Nc2nc(-c3ccnc(N4CCC(O)CC4)n3)cs2)c1 next?
Found: > 0.01 µM

Lookup: Can you handle CS(=O)(=O)n1ccc(C(=O)NCC(=O)Nc2nc(-c3cccc(N4CCC[C@@H](O)C4)c3)cs2)c1 next?
Found: > 0.01 µM

Lookup: Can you handle CC1(C#Cc2cccc(-c3csc(NC(=O)CNC(=O)c4ccn(S(C)(=O)=O)c4)n3)c2)COC1 next?
Found: > 0.01 µM

Lookup: Can you handle CC(C)(C)n1ccc(C(=O)NCC(=O)Nc2nc(-c3cccc(C#N)c3)cs2)c1 next?
Found: > 0.1 µM

Lookup: Can you handle CS(=O)(=O)n1ccc(C(=O)NCC(=O)Nc2nc(-c3cccc(N4CC5CC(C4)O5)c3)cs2)c1 next?
Found: > 0.1 µM

Lookup: Can you handle CS(=O)(=O)n1ccc(C(=O)NCC(=O)Nc2nc(-c3cccc(OC(F)(F)F)c3)cs2)c1 next?
Found: > 0.01 µM

Lookup: Can you handle CC(C)(C)n1ccc(C(=O)NCC(=O)Nc2nc(-c3cccc(N4CCC(O)CC4)n3)cs2)c1 next?
Found: > 0.01 µM

Lookup: Can you handle CO[C@H]1CCCN(c2cccc(-c3csc(NC(=O)CNC(=O)c4ccn(C5(C)COC5)c4)n3)n2)C1 next?
Found: > 0.1 µM
